- tested-target: CB1 (mutant) (Homo sapiens, UniProt P21554)
- Sequence (P21554 1-417, change not shown): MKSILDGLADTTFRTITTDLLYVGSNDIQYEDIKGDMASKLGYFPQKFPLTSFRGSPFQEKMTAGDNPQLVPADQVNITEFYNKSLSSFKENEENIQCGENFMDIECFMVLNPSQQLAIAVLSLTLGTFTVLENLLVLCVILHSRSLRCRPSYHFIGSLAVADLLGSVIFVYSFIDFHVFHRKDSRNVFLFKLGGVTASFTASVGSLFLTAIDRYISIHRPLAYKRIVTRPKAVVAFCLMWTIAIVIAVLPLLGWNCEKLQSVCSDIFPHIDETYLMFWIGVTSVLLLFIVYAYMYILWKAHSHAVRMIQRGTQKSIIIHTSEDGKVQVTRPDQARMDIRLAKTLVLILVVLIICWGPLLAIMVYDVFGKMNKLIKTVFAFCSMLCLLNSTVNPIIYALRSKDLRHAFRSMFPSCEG
- assay-protocol: R-SAT functional receptor assay, CB1 (mutant, truncated after amino acid 417)
- Assay type: cell-based
- run-conditions: Appendix A; R-SAT CB1; receptor form not stated; relative to SR141716 (100%); read-out: % Inhibition
readout-type: Emax (%)
Give just the number in %; leave the unit off.

Q) Need Emax of COCCNC(=O)c1ccc2c(c1)N=C(c1sccc1C)c1ccccc1S2 , thanks.
A) 88

Q) Field request: Emax | item: O=C(NCc1ccco1)c1ccc2c(c1)N=C(c1ccccn1)c1ccccc1S2
A) 102

Q) Find the recorded Emax belonging to O=C(NCc1cccnc1)c1ccc2c(c1)N=C(c1ccccc1Cl)c1ccccc1S2 and report it.
A) 72

Q) For the molecule Cc1ccsc1C1=Nc2cc(C(=O)NCCc3ccncc3)ccc2Sc2ccccc21 , what Emax is on record?
A) 101

Q) Give its Emax value. Item: O=C(NCc1ccc(F)cc1)c1ccc2c(c1)N=C(C1CCCCC1)c1ccccc1S2(=O)=O [drawing 917]
A) 120

Q) Item under review: O=C(NCCc1ccncc1)c1ccc2c(c1)N=C(c1ccccc1Cl)c1ccccc1S2 . Reported Emax?
A) 82

Q) Emax for O=C(NNCC(F)(F)F)c1ccc2c(c1)N=C(c1cccc(Cl)c1)c1ccccc1S2 [drawing 678] ?
A) 99

Q) What does the data say about its Emax? Entry: CCONC(=O)c1ccc2c(c1)N=C(c1ccc(Cl)s1)c1ccccc1S2
A) 97

Q) Which Emax reading was recorded for the molecule O=C(NC1CCCCC1)c1ccc2c(c1)N=C(c1ccc(F)cc1)c1ccccc1S2 [drawing 1065] ?
A) 111

Q) Could you tell me which Emax is on file for CCCCNC(=O)c1ccc2c(c1)N=C(c1ccccc1)c1ccccc1S2 [drawing 761] ?
A) 104

Q) What value of Emax has been reported for the following molecule? CONC(=O)c1ccc2c(c1)N=C(c1sccc1C)c1ccccc1S2
A) 45

Q) // returns reported Emax for input Cc1cc(Cl)ccc1C1=Nc2cc(C(=O)NC3CCCCC3)ccc2Sc2ccccc21
A) 83

Q) Emax lookup needed for O=C(NN1CCCCC1)c1ccc2c(c1)N=C(c1ccc(F)c(Cl)c1)c1ccccc1S2 [drawing 817] , thanks.
A) 108

Q) Recorded Emax of CCCCNC(=O)c1ccc2c(c1)N=C(c1ccc(Cl)cc1)c1cc(F)ccc1S2 [drawing 1111] , please.
A) 98

Q) Which Emax is listed for CCONC(=O)c1ccc2c(c1)N=C(c1ccc(Cl)c(Cl)c1)c1ccccc1S2 [drawing 806] ?
A) 87

Q) Query (molecule): CCN(CCNC(=O)c1ccc2c(c1)N=C(c1ccc(F)cc1)c1ccccc1S2)c1ccccc1 [drawing 773] ; field requested: Emax
A) 99

Q) Look at this molecule and give its reported Emax. O=C(NCc1ccncc1)c1ccc2c(c1)N=C(c1cccc(Br)c1)c1ccccc1S2 [drawing 977]
A) 95

Q) # Emax lookup, item CCCC1=Nc2cc(C(=O)NCc3ccccc3Cl)ccc2Sc2ccccc21 [drawing 791]
A) 105

Q) For CC(C)CC1=Nc2cc(C(=O)NN3CCCCC3)ccc2Sc2ccccc21 , what is its reported Emax?
A) 90

###

- tested-target: native CB1 receptors (Rattus norvegicus)
- assay-protocol: CB1 receptor rat binding assay ([3H]SR141716A, rat brain membranes)
- run-conditions: rat brain membranes, [3H]SR141716A; read-out: Binding rat pKi (converted)
Assign Ki to each entry below.
Answer format: numeric, nM implied, no suffix.

Q) Which Ki is reported with native CB1 receptors (Rattus norvegicus) for this entry: O=C(NCc1cccc(Cl)c1)c1ccc2c(c1)N=C(c1ccccc1)c1ccccc1S2 [drawing 1449] ?
A) 7.94

Q) What Ki appears in the records for this molecule with native CB1 receptors (Rattus norvegicus)? O=C(NCc1ccccc1)c1ccc2c(c1)N=C(C1CCCCC1)c1ccccc1S2 [drawing 1343]
A) 3.98

Q) Notebook entry, native CB1 receptors (Rattus norvegicus) assay: Ki of O=C(NCCCc1ccccc1)c1ccc2c(c1)N=C(c1ccccc1F)c1ccccc1S2 [drawing 1206] = ?
A) 12.6

Q) Tell me reported Ki for CC(C)CNC(=O)c1ccc2c(c1)N=C(c1ccc(Cl)cc1)c1ccccc1S2 [drawing 1314] , tested with native CB1 receptors (Rattus norvegicus).
A) 3.16

###

Exercise: for every item that follows, state its recorded Ki.
- tested-target: native CB1 receptors (Rattus norvegicus, UniProt P20272)
- Sequence (P20272 whole entry): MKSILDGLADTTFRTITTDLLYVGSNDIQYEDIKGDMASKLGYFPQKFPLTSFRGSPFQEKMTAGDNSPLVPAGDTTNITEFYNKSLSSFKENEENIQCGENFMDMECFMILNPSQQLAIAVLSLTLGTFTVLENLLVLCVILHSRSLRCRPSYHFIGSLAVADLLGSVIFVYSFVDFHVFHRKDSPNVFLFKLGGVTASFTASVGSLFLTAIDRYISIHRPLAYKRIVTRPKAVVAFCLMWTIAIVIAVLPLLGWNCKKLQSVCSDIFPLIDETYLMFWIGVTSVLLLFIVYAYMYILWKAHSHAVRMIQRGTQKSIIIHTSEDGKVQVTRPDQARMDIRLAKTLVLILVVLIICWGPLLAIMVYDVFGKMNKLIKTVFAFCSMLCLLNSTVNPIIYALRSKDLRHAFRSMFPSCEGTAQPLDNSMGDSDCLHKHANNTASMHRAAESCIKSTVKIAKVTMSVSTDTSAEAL
- assay-protocol: CB1 receptor rat binding assay ([3H]SR141716A, rat brain membranes)
- run-conditions: rat brain membranes, [3H]SR141716A; read-out: Binding rat pKi (converted)
Kindly answer with a numeric value in nM, unit omitted.

Q) Fill blank: measured Ki of the molecule O=C(Cc1ccccc1)NNC(=O)c1ccc2c(c1)N=C(c1ccc(Cl)cc1)c1ccccc1S2 [drawing 1451] is ____.
A) 50.1

Q) Look up Ki for this molecule: O=C(NCCc1ccc(Cl)cc1)c1ccc2c(c1)N=C(c1cccc(Cl)c1)c1ccccc1S2 [drawing 1281]
A) 2

Q) Bench note: what Ki did O=C(NCc1ccccc1Cl)c1ccc2c(c1)N=C(c1cccc(Cl)c1)c1ccccc1S2 [drawing 1415] show?
A) 6.31

Q) Look at this molecule and give its reported Ki. CCCCNC(=O)c1ccc2c(c1)N=C(c1sccc1C)c1ccccc1S2 [drawing 1244]
A) 15.8

Q) Returns the measured Ki for the input molecule. Input: O=C(NN1CCCCC1)c1ccc2c(c1)N=C(c1cccc(Cl)c1)c1ccccc1O2
A) 39.8

Q) Form field: reported Ki of O=C(NCc1ccc(Cl)cc1Cl)c1ccc2c(c1)N=C(c1ccc(F)cc1)c1ccccc1S2 [drawing 1211]
A) 12.6

Q) Field request: Ki | item: O=C(NNCc1ccccc1)c1ccc2c(c1)N=C(c1cccc(Br)c1)c1ccccc1S2 [drawing 1505]
A) 79.4

Q) GET /values?readout=Ki&item= O=C(NCCc1cccc(Cl)c1)c1ccc2c(c1)N=C(c1ccc(F)cc1)c1ccccc1S2 [drawing 1179]
A) 12.6

Q) Can you share its Ki? I mean this molecule: O=C(NCc1cccc(Cl)c1)c1ccc2c(c1)N=C(c1ccc(F)cc1)c1ccccc1[S+]2[O-] (stereo not shown) [drawing 1390]
A) 31.6

Q) Need Ki of O=C(NCc1ccco1)c1ccc2c(c1)N=C(c1ccc(Cl)cc1)c1ccccc1S2 [drawing 1369] , thanks.
A) 5.01

###

For each of the compounds below, state its log10 of IC50.
- tested-target: CB1 (mutant) (Homo sapiens, UniProt P21554)
- assay-protocol: R-SAT functional receptor assay, CB1 (mutant, truncated after amino acid 417)
- Assay type: cell-based
- run-conditions: Appendix A; R-SAT CB1; receptor form (mutant or wild-type) not stated; read-out: pIC50 (converted)
Note the log scale: values are log10 of IC50 expressed in nM.

Q) Look up log10 of IC50 for this compound: CCCC1=Nc2cc(C(=O)N3CCN(c4cccc(C(F)(F)F)c4)CC3)ccc2Sc2ccccc21
A) 2.40

Q) Could you share which log10 of IC50 value was measured for CC(C)CNC(=O)c1ccc2c(c1)N=C(c1ccc(Cl)cc1Cl)c1ccccc1S2 ?
A) 1.90

Q) Could you share which log10 of IC50 value was measured for O=C(NCCc1ccccn1)c1ccc2c(c1)N=C(c1ccc(Cl)cc1)c1ccccc1S2 [drawing 1049] ?
A) 1.50

Q) Given the compound CCCCN(C)C(=O)c1ccc2c(c1)N=C(c1sccc1C)c1ccccc1S2 , what is its reported log10 of IC50?
A) 2.20

Q) Look up log10 of IC50: O=C(NCCc1cccc(Cl)c1)c1ccc2c(c1)N=C(C1CCCCC1)c1ccccc1S2 [drawing 1001]
A) 1.40

Q) What does the data say about its log10 of IC50? Entry: COCCNC(=O)c1ccc2c(c1)N=C(c1ccc(Cl)s1)c1ccccc1S2 [drawing 819]
A) 1.10

Q) // returns reported log10 of IC50 for input O=C(NCCCC(F)(F)F)c1ccc2c(c1)N=C(c1ccc(Cl)s1)c1ccccc1S2 [drawing 559]
A) 0.40

Q) # lookup: log10 of IC50 of COCCNC(=O)c1ccc2c(c1)N=C(c1ccccn1)c1ccccc1S2
A) 2.60

Q) Look up log10 of IC50 for this compound: CC(C)NC(=O)c1ccc2c(c1)N=C(c1ccc(Cl)cc1)c1ccccc1S2 [drawing 576]
A) 1.70

Q) Which measured log10 of IC50 value corresponds to O=C(NCc1ccccc1)c1ccc2c(c1)N=C(c1ccc(F)cc1)c1ccccc1S2 [drawing 759] ?
A) 1.00

Q) What does the data say about its log10 of IC50? Entry: O=C(NCCc1cccnc1)c1ccc2c(c1)N=C(c1ccccc1F)c1ccccc1S2
A) 1.90

Q) Any idea what its log10 of IC50 is? The compound is O=C(NCc1ccc(F)cc1)c1ccc2c(c1)N=C(C1CCCCC1)c1ccccc1S2 [drawing 591]
A) 0.50

Q) log10 of IC50 for CCCC1=Nc2cc(C(=O)NCCCN3CC(C)CC(C)C3)ccc2Sc2ccccc21 (stereo not drawn) ?
A) 2.80

Q) Endpoint output: log10 of IC50 of C[C@@H]1CCC[C@H](C)N1NC(=O)c1ccc2c(c1)N=C(c1ccc(Cl)cc1F)c1ccccc1S2 [drawing 811] . Value?
A) 1.00

Q) Quick one: log10 of IC50 for C=C(/C=C\C1=CN=C(CCC)c2ccccc2S1)C(=O)NC1CCCC1 ?
A) 1.90

Q) Fill blank: measured log10 of IC50 of the compound CCCCNC(=O)c1ccc2c(c1)N=C(c1ccccc1F)c1ccccc1S2 [drawing 1129] is ____.
A) 1.60

Q) May I ask what log10 of IC50 has been recorded for Cc1ccsc1C1=Nc2cc(C(=O)NN3CCCCC3)ccc2Sc2ccccc21 [drawing 1045] ?
A) 1.50

Q) Would you kindly share the measured log10 of IC50 for CCCNC(=O)c1ccc2c(c1)N=C(c1ccc(F)cc1)c1ccccc1S2 [drawing 841] ?
A) 1.10

Q) Can you share its log10 of IC50? I mean this compound: CCN(CCNC(=O)c1ccc2c(c1)N=C(C1CCCCC1)c1ccccc1S2)c1ccccc1 [drawing 865]
A) 1.20

Q) Any idea what its log10 of IC50 is? The compound is O=C(NCCCC(F)(F)F)c1ccc2c(c1)N=C(c1ccc(Cl)cc1)c1ccccc1S2 [drawing 601]
A) 0.60

Q) I would be grateful if you could share the reported log10 of IC50 for CCCC1=Nc2cc(C(=O)NN3CCCCC3)ccc2Sc2ccccc21 .
A) 2.20

Q) Can you look up the measured log10 of IC50 of CCCCN(C)C(=O)c1ccc2c(c1)N=C(c1cccc(F)c1)c1ccccc1S2 for me?
A) 1.80

Q) Field request: log10 of IC50 | item: O=C(NCCc1ccccc1)c1ccc2c(c1)N=C(N1CCCCC1)c1ccccc1S2 [drawing 1019]
A) 1.40

Q) Fill in the blank: the reported log10 of IC50 of O=C(NC1CCCCC1)c1ccc2c(c1)N=C(c1ccccc1F)c1ccccc1S2 [drawing 740] is ____.
A) 1.90

Q) # query: log10 of IC50 of entry CCCC1=Nc2cc(C(=O)NCCCN(CC)CC)ccc2Sc2ccccc21
A) 3.40

Q) Could you tell me which log10 of IC50 is on file for CCCCNC(=O)c1ccc2c(c1)N=C(c1ccc(Cl)cc1)c1ccc(F)cc1S2 [drawing 985] ?
A) 1.40

Q) # query: log10 of IC50 of entry CCCC1=Nc2cc(C(=O)NCC3C=CC4=C(C3)OCO4)ccc2Sc2ccccc21 (stereo not drawn)
A) 2.60

Q) Value lookup for log10 of IC50; key = CONC(=O)c1ccc2c(c1)N=C(c1ccc(Cl)s1)c1ccccc1S2
A) 2.60

Q) Entry under review: O=C(NNCC(F)(F)F)c1ccc2c(c1)N=C(c1cccc(Cl)c1)c1ccccc1S2 [drawing 678] . Reported log10 of IC50?
A) 1.80

Q) I would be grateful if you could share the reported log10 of IC50 for O=C(NCc1ccccc1Cl)c1ccc2c(c1)N=C(c1ccc(F)cc1)c1ccccc1S2 [drawing 1121] .
A) 1.60

Q) Reported log10 of IC50 for O=C(NCCCc1ccccc1)c1ccc2c(c1)N=C(N1CCCCC1)c1ccccc1S2 [drawing 903] : what is it?
A) 1.20

Q) Recorded log10 of IC50 of O=C(NNC(=O)c1ccc2c(c1)N=C(c1ccc(Br)cc1)c1ccccc1S2)c1ccccc1 , please.
A) 2.40

Q) Form field: reported log10 of IC50 of O=C(NCc1ccc(F)cc1)c1ccc2c(c1)N=C(c1ccc(Cl)cc1)c1ccccc1S2(=O)=O [drawing 961]
A) 1.30

Q) Please report the recorded log10 of IC50 for CCOCCNC(=O)c1ccc2c(c1)N=C(c1cccc(Br)c1)c1ccccc1S2 [drawing 789] .
A) 1.00

Q) What measured log10 of IC50 goes with CCCCNC(=O)c1ccc2c(c1)N=C(C1CCCCC1)c1ccccc1S2 [drawing 937] ?
A) 1.30

Q) Fill blank: measured log10 of IC50 of the compound O=C(NN1CCOCC1)c1ccc2c(c1)N=C(c1ccc(F)cc1)c1ccccc1S2 is ____.
A) 2.80
